Ref: patent US20240360228A1

Target: T1, human chemokine (C-C motif) receptor 8 (CCR8) (human, UniProt P51685 1-355)
T1 construct: On human peripheral blood lymphocytes / PBMC (native) or on human CCR8 GFP-transfected Ba/F3 cells; also called hCCR8; human CCR8
T1 sequence (P51685 whole entry): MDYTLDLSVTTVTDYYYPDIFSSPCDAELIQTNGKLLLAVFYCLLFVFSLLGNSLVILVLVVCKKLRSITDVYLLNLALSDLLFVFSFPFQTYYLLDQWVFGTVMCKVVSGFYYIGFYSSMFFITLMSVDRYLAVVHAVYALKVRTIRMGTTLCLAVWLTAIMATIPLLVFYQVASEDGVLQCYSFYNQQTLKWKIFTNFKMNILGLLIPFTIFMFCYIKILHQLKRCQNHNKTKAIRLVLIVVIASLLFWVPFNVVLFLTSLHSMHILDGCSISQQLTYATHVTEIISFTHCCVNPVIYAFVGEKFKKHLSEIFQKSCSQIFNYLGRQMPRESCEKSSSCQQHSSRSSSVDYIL
Test: flow cytometry blocking, PBMC CCR8+ CD4+ cells; competitor PE-AB10 (its MFI is read)
Record form. Attribute: % Blocking. Fill in for each entry.
Answers are plain numbers, in %.

Some binders with recorded % Blocking:
{"columns": ["binder", "% Blocking, %"],
 "data": [
  ["AB1 (antibody, V domains shown, Hybridoma monoclonal (mice or rats immunised); Used purified and PE-conjugated; also called antibody 1; clone 1) VH: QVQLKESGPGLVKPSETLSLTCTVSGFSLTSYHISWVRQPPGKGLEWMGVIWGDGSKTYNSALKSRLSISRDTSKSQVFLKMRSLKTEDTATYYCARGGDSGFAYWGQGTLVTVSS VL: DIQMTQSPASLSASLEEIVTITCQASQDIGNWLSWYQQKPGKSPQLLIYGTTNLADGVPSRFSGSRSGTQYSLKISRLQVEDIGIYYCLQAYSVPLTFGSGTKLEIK", 0.2],
  ["AB10 (antibody, V domains shown, Hybridoma monoclonal; also called antibody 10; clone 10) VH: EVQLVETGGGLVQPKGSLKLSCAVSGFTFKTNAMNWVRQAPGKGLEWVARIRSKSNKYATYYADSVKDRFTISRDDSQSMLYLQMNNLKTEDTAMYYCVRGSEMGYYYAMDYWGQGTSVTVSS VL: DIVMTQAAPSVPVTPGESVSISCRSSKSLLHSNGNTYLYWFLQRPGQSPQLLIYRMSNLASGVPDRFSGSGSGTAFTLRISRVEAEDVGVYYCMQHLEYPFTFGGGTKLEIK", -32.5]
]}

Please turn your attention to the following entry.
Ask | Report % Blocking for AB14 (antibody, V domains shown, Hybridoma monoclonal; also called antibody 14; clone 14) VH: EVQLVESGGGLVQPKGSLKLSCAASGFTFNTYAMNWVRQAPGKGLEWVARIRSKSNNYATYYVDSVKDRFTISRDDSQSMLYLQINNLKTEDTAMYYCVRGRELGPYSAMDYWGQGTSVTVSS VL: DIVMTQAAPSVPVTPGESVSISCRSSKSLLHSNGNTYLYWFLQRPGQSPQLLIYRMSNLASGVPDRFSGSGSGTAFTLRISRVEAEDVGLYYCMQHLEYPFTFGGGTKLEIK please.
Reply | 28.6
